Ref: ChEMBL document CHEMBL3797176

Listing: Ratio of selected molecules
target: ATP-dependent translocase ABCB1 (Homo sapiens, UniProt P08183); assay: Inhibition of human MDR1 transfected in multi-drug resistant mouse L5178Y cells assessed as fluorescence activity ratio at 20 uM incubated for 10 mins by rhodamine 123 accumulation assay; format: cell-based
Sequence (P08183 whole entry): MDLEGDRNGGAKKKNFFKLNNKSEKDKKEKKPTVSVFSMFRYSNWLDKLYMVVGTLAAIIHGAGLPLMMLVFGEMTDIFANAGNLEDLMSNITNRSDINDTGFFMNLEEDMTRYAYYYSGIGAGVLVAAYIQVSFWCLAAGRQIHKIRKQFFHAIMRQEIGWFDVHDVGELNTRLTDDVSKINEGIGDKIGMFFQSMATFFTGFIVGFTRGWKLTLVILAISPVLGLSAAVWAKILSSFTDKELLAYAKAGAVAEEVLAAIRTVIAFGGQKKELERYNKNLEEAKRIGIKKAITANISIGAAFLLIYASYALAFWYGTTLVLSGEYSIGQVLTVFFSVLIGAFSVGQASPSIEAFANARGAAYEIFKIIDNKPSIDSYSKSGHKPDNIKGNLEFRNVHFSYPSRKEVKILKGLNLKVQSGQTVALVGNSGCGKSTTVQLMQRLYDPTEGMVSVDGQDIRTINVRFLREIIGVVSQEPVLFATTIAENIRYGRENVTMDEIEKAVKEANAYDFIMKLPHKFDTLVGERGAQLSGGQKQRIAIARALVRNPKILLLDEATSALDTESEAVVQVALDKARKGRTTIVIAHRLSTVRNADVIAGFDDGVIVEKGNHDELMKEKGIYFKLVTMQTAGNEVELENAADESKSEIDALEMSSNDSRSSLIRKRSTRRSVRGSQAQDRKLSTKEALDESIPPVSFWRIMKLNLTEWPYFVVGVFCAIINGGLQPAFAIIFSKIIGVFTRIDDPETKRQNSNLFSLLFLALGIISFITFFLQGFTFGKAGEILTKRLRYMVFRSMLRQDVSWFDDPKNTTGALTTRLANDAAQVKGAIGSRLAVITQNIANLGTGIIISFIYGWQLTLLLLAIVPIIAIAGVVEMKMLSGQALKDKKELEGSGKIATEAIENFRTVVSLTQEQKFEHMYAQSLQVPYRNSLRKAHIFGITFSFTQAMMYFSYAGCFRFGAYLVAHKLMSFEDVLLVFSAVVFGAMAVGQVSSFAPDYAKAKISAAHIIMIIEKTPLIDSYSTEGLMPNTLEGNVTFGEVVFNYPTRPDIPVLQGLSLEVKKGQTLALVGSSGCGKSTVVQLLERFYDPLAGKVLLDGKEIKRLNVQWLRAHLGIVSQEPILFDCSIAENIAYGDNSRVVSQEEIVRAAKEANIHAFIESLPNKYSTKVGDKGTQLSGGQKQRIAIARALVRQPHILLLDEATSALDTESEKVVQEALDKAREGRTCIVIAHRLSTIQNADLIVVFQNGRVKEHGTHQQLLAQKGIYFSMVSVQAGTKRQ
In your answer, state the number alone without any accompanying words.

INSERT INTO results (smiles_string, readout_number) VALUES
  ('NC(=O)C[Se]C(=O)c1ccccc1', 1.05),
  ('CC(=O)C[Se]C(=O)c1ccc(Cl)cc1', 84.64),
  ('O=C1[Se]C(=O)c2ccccc21', 97.61),
  ('CC(C)(C)C(=O)C[Se]C(=O)c1ccc(Cl)cc1', 48.67),
  ('C[Se]C(=O)c1ccc(C(=O)[Se]C)s1', 1.07),
  ('COC(=O)C[Se]C(=O)c1ccc(Cl)cc1', 8.53),
  ('C[Se]C(=O)c1cccc(C(=O)[Se]C)n1', 1.49),
  ('C[Se]C(=O)c1cccc(C(=O)[Se]C)c1', 0.98),
  ('C[Se]C(=O)c1ccc(C(=O)[Se]C)cc1', 3.09),
  ('COc1cc(OC)cc(C(=O)[Se]CC(=O)C(C)(C)C)c1', 46.35);

# ---- query molecule ----
-- ask Request body: readout Ratio, system ATP-dependent translocase ABCB1 (Homo sapiens, UniProt P08183), query O=C(C[Se]C(=O)c1ccccc1)Oc1ccccc1 . Return the value.
-- reply 5.68

###

biological target: ATP-dependent translocase ABCB1 (Homo sapiens); assay: Inhibition of human MDR1 transfected in multi-drug resistant mouse L5178Y cells assessed as fluorescence activity ratio quotient at 2 uM incubated for 10 mins by rhodamine 123 accumulation assay relative to verapamil; assay type: cell-based; set-up: scale not given: the % may be the effect or the level left
Listing: Activity of selected compounds
Unit % implied. Number only.

INSERT INTO results (smiles_string, scale_unit, readout_number) VALUES
  ('NC(=O)C[Se]C(=O)c1ccccc1', '%', 3.04),
  ('C[Se]C(=O)c1cccc(C(=O)[Se]C)c1', '%', 2.78);

-- ask # Activity lookup, item COc1cc(OC)cc(C(=O)[Se]CC(=O)C(C)(C)C)c1
-- reply 45.84

-- ask # Activity lookup, item CC(C)(C)C(=O)C[Se]C(=O)c1ccc(Cl)cc1
-- reply 33.87

-- ask # Activity lookup, item C[Se]C(=O)c1ccc(C(=O)[Se]C)cc1
-- reply 18.64

-- ask # Activity lookup, item C[Se]C(=O)c1cccc(C(=O)[Se]C)n1
-- reply 3.98

###

molecular target: UniProt:P08183; assay: Inhibition of human MDR1 transfected in multi-drug resistant mouse L5178Y cells assessed as fluorescence activity ratio quotient at 2 uM incubated for 10 mins by rhodamine 123 accumulation assay relative to verapamil; type: cell-based; set-up: scale not given: the % may be the effect or the level left
Listing: Activity of selected compounds
Unit % implied. Number only.

Some compounds with known Activity results, for comparison:
INSERT INTO results (smiles_string, endpoint, readout_number) VALUES
  ('COC(=O)C[Se]C(=O)c1ccc(Cl)cc1', 'Activity', 30.28),
  ('O=C(C[Se]C(=O)c1ccccc1)Oc1ccccc1', 'Activity', 3.05),
  ('C[Se]C(=O)c1ccc(C(=O)[Se]C)s1', 'Activity', 3.61),
  ('CC(=O)C[Se]C(=O)c1ccc(Cl)cc1', 'Activity', 343.79);

# ---- query compound ----
-- ask # Activity lookup, item O=C1[Se]C(=O)c2ccccc21
-- reply 157.4
